Numbers sourced from PubChem BioAssay AID651930.

# method: Vero 76 cell cytotoxicity, dose response, cytotoxicity control for VEEV inhibitor project, set 9 (AID 651930)
# measurement-parameters: Vero 76 cytotoxicity; series mostly up to 25 µM
Activity calls are given as the source filed them. The rule behind the calls is not given here.
experimental-readout: outcome

>>> df
                                    compound  experimental_readout  recorded_value
 0  CCN1CCN(Cc2nc3ccc([N+](=O)[O-])cc3c(=O)n2C)CC1               outcome        inactive
 1  CNCCCN(C)Cc1nc2ccc([N+](=O)[O-])cc2c(=O)n1-c1ccccc1               outcome        inactive
 2  O=c1c2cc([N+](=O)[O-])ccc2nc(CN2CCNCC2)n1-c1ccccc1               outcome        inactive
 3  CCN1CCN(Cc2nc3ccc(-c4cccnc4)cc3c(=O)n2-c2ccccc2)CC1               outcome        inactive
 4           COc1ccc(Nc2nc(=O)c3cccnc3s2)cc1               outcome        inactive
 5  O=c1nc(Nc2ccc(OCc3ccccc3)cc2)sc2ncc(F)cc12               outcome        inactive
 6  COc1cccc(-n2c(CN3CCNCC3)nc3ccc([N+](=O)[O-])cc3c2=O)c1               outcome        inactive
 7  CCN1CCN(CC2Nc3ccc([N+](=O)[O-])cc3C(=O)N2c2ccccc2F)CC1 (configuration not stated)               outcome        inactive
 8   O=c1nc(Nc2cccc(OCc3ccccc3)c2)sc2ncccc12               outcome        inactive
 9  CCN1CCN(Cc2nc3ccc(-c4nn[nH]n4)cc3c(=O)n2-c2ccccc2)CC1               outcome        inactive
10  COc1ccc(-n2c(CN3CCNCC3)nc3ccc([N+](=O)[O-])cc3c2=O)cc1               outcome        inactive
11  CN(C)c1ccc(-n2c(CN3CCNCC3)nc3ccc([N+](=O)[O-])cc3c2=O)cc1               outcome        inactive
12  CCN1CCN(Cc2nc3ccc(C#N)cc3c(=O)n2-c2ccccc2)CC1               outcome        inactive
13  O=c1c2cc([N+](=O)[O-])ccc2nc(CN2CCNCC2)n1-c1ccsc1               outcome        inactive
14  O=c1c2cc([N+](=O)[O-])ccc2nc(C2CCNCC2)n1-c1ccccc1               outcome        inactive
15  CCN1CCN(Cc2nc3c([N+](=O)[O-])cccc3c(=O)n2-c2ccccc2)CC1               outcome        inactive
16  CCN1CCN(C)CC1=Nc1ccc([N+](=O)[O-])cc1C(=O)Nc1ccccc1               outcome        inactive
17  CN1CCN(C)C(=Nc2ccc(F)cc2C(=O)Nc2ccccc2)C1               outcome        inactive
18            O=c1nc(Nc2ccc(F)cc2)sc2ncccc12               outcome        inactive
19  CN(C)c1cccc(-n2c(CN3CCNCC3)nc3ccc([N+](=O)[O-])cc3c2=O)c1               outcome        inactive
20  CNCCN(C)Cc1nc2ccc(C#N)cc2c(=O)n1-c1ccccc1F               outcome        inactive
21   O=c1nc(Nc2ccc(CCc3ccccc3)cc2)sc2ncccc12               outcome        inactive
